# Target: Human M3 receptor (Homo sapiens, UniProt P20309)
# Construct: purchased Perkin Elmer
# Sequence (P20309 whole entry): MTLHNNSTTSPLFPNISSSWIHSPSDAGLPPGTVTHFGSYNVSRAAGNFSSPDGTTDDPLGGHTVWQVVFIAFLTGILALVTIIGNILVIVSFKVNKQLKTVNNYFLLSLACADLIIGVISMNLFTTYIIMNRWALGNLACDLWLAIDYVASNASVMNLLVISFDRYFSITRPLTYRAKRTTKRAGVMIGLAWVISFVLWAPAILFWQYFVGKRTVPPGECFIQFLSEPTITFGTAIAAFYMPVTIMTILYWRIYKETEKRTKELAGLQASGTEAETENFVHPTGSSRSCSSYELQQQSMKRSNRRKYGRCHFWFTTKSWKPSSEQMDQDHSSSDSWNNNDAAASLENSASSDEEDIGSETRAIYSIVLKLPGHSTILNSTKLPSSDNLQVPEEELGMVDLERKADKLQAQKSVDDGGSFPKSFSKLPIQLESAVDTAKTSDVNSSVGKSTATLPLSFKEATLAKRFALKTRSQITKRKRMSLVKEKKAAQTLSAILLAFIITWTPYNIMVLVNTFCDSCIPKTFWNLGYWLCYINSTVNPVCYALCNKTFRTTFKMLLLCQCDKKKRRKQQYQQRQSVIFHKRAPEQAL
# Assay Remarks: M3 Receptor Radioligand Binding Assay
# Condition Description: human M3 receptor membranes, [3H]-N-methyl scopolamine; read-out: M3 binding affinity (Ki class)
Readout Type: Ki

I have 6 molecules here; please give me Ki for each one.
1. O=C(c1ccc(OCCCCNC[C@H](O)c2ccc(O)c3[nH]c(=O)ccc23)cc1)N1CC(C(=O)O[C@H]2CN3CCC2CC3)(c2ccccc2)C1 [Compound 18A]
2. O=C(c1cccc(OCCCCCNC[C@H](O)c2ccc(O)c3[nH]c(=O)ccc23)c1)N1CCC(C(=O)O[C@H]2CN3CCC2CC3)(c2ccccc2)CC1 [Compound 2]
3. CNC(=O)N(Cc1ccc(CNC[C@H](O)c2ccc(O)c3[nH]c(=O)ccc23)cc1)Cc1ccc(C(=O)N2CCC(C(=O)O[C@H]3CN4CCC3CC4)(c3ccccc3)CC2)cc1 [Compound 63]
4. O=C(Cc1ccc(CC(=O)N(CCCNC[C@H](O)c2ccc(O)c3[nH]c(=O)ccc23)Cc2ccccc2N2CCOCC2)cc1)N1CCC(C(=O)O[C@H]2CN3CCC2CC3)(c2ccccc2)CC1 [Compound 44]
5. CN(CCCNC[C@H](O)c1ccc(O)c2[nH]c(=O)ccc12)C(=O)Cc1ccc(CC(=O)N2CCC(C(=O)O[C@H]3CN4CCC3CC4)(c3ccccc3)CC2)cc1 [Compound 47]
6. Cc1cc(CC(=O)N2CCC(C(=O)O[C@H]3CN4CCC3CC4)(c3ccccc3)CC2)ccc1OCCCCCNC[C@H](O)c1ccc(O)c2[nH]c(=O)ccc12 [Compound 12]

[out]
1 to 10 nM
1 to 10 nM
< 1 nM
< 1 nM
1 to 10 nM
1 to 10 nM
